Target Of Assay: hERG potassium channels (Homo sapiens, UniProt Q12809)
Sequence (Q12809 whole entry): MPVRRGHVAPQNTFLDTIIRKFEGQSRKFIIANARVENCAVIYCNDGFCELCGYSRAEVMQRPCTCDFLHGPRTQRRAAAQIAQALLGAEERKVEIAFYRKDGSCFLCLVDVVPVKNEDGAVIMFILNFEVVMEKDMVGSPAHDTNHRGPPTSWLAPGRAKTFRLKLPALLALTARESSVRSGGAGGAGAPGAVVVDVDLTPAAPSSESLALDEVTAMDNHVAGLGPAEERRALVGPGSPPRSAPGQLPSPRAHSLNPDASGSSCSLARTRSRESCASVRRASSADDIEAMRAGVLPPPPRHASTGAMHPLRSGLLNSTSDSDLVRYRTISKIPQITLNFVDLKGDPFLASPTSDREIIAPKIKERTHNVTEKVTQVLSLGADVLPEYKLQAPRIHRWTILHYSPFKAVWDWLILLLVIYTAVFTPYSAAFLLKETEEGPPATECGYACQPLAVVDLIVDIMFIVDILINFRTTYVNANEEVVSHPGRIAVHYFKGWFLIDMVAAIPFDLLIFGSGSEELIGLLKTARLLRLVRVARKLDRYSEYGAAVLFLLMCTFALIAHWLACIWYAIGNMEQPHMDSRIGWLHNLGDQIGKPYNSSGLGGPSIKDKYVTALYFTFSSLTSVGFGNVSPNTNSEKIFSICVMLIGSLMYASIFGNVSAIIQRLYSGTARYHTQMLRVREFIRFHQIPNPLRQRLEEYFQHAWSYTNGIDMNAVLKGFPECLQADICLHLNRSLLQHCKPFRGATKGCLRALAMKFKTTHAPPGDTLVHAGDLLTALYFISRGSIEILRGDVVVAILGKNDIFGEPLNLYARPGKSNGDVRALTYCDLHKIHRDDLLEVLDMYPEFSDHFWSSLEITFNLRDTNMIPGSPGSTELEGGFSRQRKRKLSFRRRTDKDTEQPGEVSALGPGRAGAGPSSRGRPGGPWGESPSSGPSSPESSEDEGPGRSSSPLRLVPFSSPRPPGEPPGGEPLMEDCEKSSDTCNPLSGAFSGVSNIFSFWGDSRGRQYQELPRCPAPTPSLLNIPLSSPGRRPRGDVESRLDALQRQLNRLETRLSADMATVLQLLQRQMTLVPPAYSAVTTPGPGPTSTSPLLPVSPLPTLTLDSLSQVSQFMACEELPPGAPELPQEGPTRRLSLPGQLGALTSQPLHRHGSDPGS
Experimental Protocol: hERG potassium channel whole cell patch clamp
Condition Label: HEK293 cells stably expressing hERG, tail current, read-out: IC50 of inhibition on hERG potassium channels at cell level
Consider the following compounds and their measured pIC50 readings.
// field semantics: pIC50 = negative decimal log of concentration (mol/L)

Solved entries (count: 2):
[2H]C([2H])([2H])N(CCN(C)C)c1cc(OC)c(Nc2nccc(-c3cn4c5c(cccc35)CCC4)n2)cc1NC(=O)C=C    5.71
[2H]C([2H])([2H])N(C)CCN(C)c1cc(OC)c(Nc2nccc(-c3cn4c5c(cccc35)CCC4)n2)cc1NC(=O)C=C    5.73

// next item, pIC50 requested
(Q) Returns the measured pIC50 for the input compound. Input: [2H]C([2H])([2H])N(CCN(C)c1cc(OC)c(Nc2nccc(-c3cn4c5c(cccc35)CCC4)n2)cc1NC(=O)C=C)C([2H])([2H])[2H]
(A) 5.57

Where do the numbers come from? From patent US10654851B2.
